Cited source for all entries: patent US10280159B2

molecular target: human S1PR3 (Homo sapiens); construct: host or cells: CHO-K1; assay: Intracellular Ca2+ release (FLIPR) agonist potency, S1P3; format: cell-based
Sequence (Q99500 whole entry): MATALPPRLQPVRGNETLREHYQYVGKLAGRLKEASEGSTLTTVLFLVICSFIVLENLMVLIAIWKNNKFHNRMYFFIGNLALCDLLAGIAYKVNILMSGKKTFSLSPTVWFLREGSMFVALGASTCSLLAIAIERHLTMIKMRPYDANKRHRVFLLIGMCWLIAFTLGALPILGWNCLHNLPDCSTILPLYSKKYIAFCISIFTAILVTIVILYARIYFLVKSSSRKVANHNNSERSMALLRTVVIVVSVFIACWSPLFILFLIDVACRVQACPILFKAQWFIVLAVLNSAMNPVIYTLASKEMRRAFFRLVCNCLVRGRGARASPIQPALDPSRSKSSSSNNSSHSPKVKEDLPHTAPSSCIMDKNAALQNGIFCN
endpoint.label: EC50

compound="CCc1cccc(Cl)c1COc1ccc2c(c1)CCC(NCc1cc(=O)[nH]o1)C2 (stereo not shown)" endpoint_label=EC50 test_result="> 1000 nM"

----------
Target: human S1PR4 (Homo sapiens, UniProt O95977)
Construct: host or cells: CHO-K1
Sequence (O95977 1-384): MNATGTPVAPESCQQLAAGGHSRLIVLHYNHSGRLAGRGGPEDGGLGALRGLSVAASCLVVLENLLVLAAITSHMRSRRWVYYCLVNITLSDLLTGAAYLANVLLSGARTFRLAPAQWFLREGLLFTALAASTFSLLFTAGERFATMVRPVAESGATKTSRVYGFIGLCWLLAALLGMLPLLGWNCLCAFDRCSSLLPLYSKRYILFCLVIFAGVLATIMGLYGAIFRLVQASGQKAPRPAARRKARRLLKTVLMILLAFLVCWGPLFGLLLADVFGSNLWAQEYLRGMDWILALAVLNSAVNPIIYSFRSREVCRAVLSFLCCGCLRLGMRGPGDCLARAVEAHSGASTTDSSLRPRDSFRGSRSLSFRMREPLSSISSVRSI
Experiment: Intracellular Ca2+ release (FLIPR) agonist potency, S1P4
Format: cell-based
Details: recombinant CHO-K1 cells expressing human S1PR4, aequorin, Gq/i5; Calcium 5 FLIPR; read-out: S1P4 EC50
endpoint.label: EC50

molecule="Cc1cccc(C)c1COc1ccc2c(c1)CCC(OCC(=O)O)C2 (centres unmarked) [Compound 175]" tested_on="human S1PR4 (Homo sapiens, UniProt O95977)" test_result="> 1000 nM"
molecule="CSc1ccc(COc2ccc3c(c2)CCC(OCCC(=O)O)C3)cc1 (centres unmarked) [Compound 182]" tested_on="human S1PR4 (Homo sapiens, UniProt O95977)" test_result="> 1000 nM"
molecule="O=C(O)C1CN(C2COc3cc(OCc4c(Cl)cccc4Cl)c(Br)cc3C2)C1 (centres unmarked) [Compound 221]" tested_on="human S1PR4 (Homo sapiens, UniProt O95977)" test_result="> 1000 nM"
molecule="O=C(O)C1(CNC2COc3cc(OCc4c(Cl)cccc4Cl)ccc3C2)CC1 (centres unmarked) [Compound 49]" tested_on="human S1PR4 (Homo sapiens, UniProt O95977)" test_result="< 1000 nM"
molecule="O=C(O)COC1CCc2cc(OCc3ccc(C(F)(F)F)cc3)ccc2C1 (centres unmarked) [Compound 202]" tested_on="human S1PR4 (Homo sapiens, UniProt O95977)" test_result="> 1000 nM"
